The measured values listed here are drawn from patent US20260001914A1.

biological target: KRAS-G12D protein (Homo sapiens, UniProt P01116, G12D); assay: SOS-mediated nucleotide exchange assay (BODIPY-GDP / Tb-streptavidin TR-FRET); format: biochemical
Sequence (P01116 1-188 isoform P01116-2 G12D): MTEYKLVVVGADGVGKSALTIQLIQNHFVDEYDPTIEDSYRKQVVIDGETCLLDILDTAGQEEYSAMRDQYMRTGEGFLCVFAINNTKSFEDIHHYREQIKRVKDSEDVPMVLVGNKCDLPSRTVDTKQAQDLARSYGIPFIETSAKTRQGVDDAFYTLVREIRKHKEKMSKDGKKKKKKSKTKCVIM
pEC50: −log10 of the molar value. *1 amine or outer side, *2 acyl side, *3 side chain or, on linkers, in order; H or OH if unused. Where a SMILES comes first, the peptide text is derived from it. Bridges are numbered along the chain shown (N, C = ends). [ ]: non-standard residue; d: D form. NMeNva(5-imidazol-1-yl) = CN[C@@H](CCCn1ccnc1)C(=O)O; Ala(pyrimidin-5-yl) = N[C@@H](Cc1cncnc1)C(=O)O; Ala(thiazol-5-yl) = N[C@@H](Cc1cncs1)C(=O)O; X24 = O=C([C@H](Cc1ccncc1Cl)N[*:1])[*:2]; Phe(4-NH2) = Nc1ccc(C[C@H](N)C(=O)O)cc1; 1Nal = N[C@@H](Cc1cccc2ccccc12)C(=O)O; NHCH2CH2SCH2CO = O=C(CSCCN[*:1])[*:2]; X21 = O=C([C@@H]1C[C@H]1CN[*:1])[*:2]; Phe(2-F) = N[C@@H](Cc1ccccc1F)C(=O)O; NMe3Pal = CN[C@@H](Cc1cccnc1)C(=O)O; X1 = O=C(C12CC(CN[*:1])(C1)C2)[*:2]; Ala(cPr) = N[C@@H](CC1CC1)C(=O)O; NMeF = CN[C@@H](Cc1ccccc1)C(=O)O; PhLac = O=C(O)[C@@H](O)Cc1ccccc1; 3Pal = N[C@@H](Cc1cccnc1)C(=O)O; 4Pal = N[C@@H](Cc1ccncc1)C(=O)O; Ahp(2) = CCCCC[C@H](N)C(=O)O; Cba = N[C@@H](CC1CCC1)C(=O)O; hLeu = CC(C)CC[C@H](N)C(=O)O; αMeC = C[C@](N)(CS)C(=O)O; NMeA = CN[C@@H](C)C(=O)O; Nle = CCCC[C@H](N)C(=O)O
Answer no if pEC50 is under 7, and yes if it is 7 or more.

>>> label_class("CCCC[C@@H]1NC(=O)[C@H](Cc2cccnc2)NC(=O)[C@H](CCCn2ccnc2)N(C)C(=O)[C@H](Cc2ccccc2)NC(=O)[C@@H]2C[C@H]2CNC(=O)[C@H](Cc2cccnc2)N(C)C(=O)[C@H](CCCC)NC(=O)[C@H](Cc2ccccc2F)NC1=O [compound 251] (cyclo(F[NMeNva(5-imidazol-1-yl)][3Pal][Nle][Phe(2-F)][Nle][NMe3Pal][X21]))")
"no"
>>> label_class("CCCCC[C@@H]1NC(=O)[C@H](Cc2ccc(OC)cc2)NC(=O)[C@H](CC2CCC2)NC(=O)[C@H](Cc2cncs2)NC(=O)[C@H](CCCNC(=N)N)NC(=O)[C@H](Cc2ccccc2)NC(=O)CSC[C@@](C)(C(N)=O)NC(=O)[C@H](Cc2ccccc2)N(C)C1=O [compound 363] ({CH2CO}-FR[Ala(thiazol-5-yl)][Cba]Y(Me)[Ahp(2)][NMeF][αMeC]-NH2; thioether N-8)")
"yes"
>>> label_class("CC(C)CC[C@@H]1NC(=O)[C@H](Cc2ccncc2Cl)NC(=O)[C@H](CC2CC2)NC(=O)[C@H](Cc2cncnc2)NC(=O)[C@H](C)N(C)C(=O)[C@H](Cc2ccccc2)OC(=O)C23CC(CNC(=O)[C@H](Cc4ccccc4)N(C)C1=O)(C2)C3 [compound 298] (cyclo([Ala(cPr)][X24][hLeu][NMeF][X1][PhLac][NMeA][Ala(pyrimidin-5-yl)]))")
"yes"
>>> label_class("CCCC[C@@H]1NC(=O)[C@H](Cc2ccncc2)NC(=O)[C@H](CCCNC(=N)N)NC(=O)[C@H](Cc2cccc3ccccc23)NC(=O)CSC[C@H](C(=O)O)NC(=O)[C@H](Cc2ccccc2)N(C)C(=O)[C@H](CCCC)NC(=O)[C@H](Cc2ccc(O)cc2)NC1=O [compound 198] ({CH2CO}-[1Nal]R[4Pal][Nle]Y[Nle][NMeF][dC]-OH; thioether N-8)")
"no"
>>> label_class("CCCC[C@@H]1NC(=O)[C@H](Cc2ccc(O)cc2)NC(=O)[C@H](CC(C)C)NC(=O)[C@H](Cc2ccc(N)cc2)NC(=O)[C@H](CCCNC(=N)N)NC(=O)[C@H](Cc2ccccc2)NC(=O)CSCCNC(=O)[C@H](Cc2ccccc2)N(C)C1=O [compound 79] (cyclo(FR[Phe(4-NH2)]LY[Nle][NMeF][NHCH2CH2SCH2CO]))")
"no"

----------
biological target: KRAS-G12D protein (Homo sapiens, UniProt P01116, G12D); assay: SOS-mediated nucleotide exchange assay (BODIPY-GDP / Tb-streptavidin TR-FRET); assay type: biochemical
*1 amine or outer side, *2 acyl side, *3 side chain or, on linkers, in order; H or OH if unused. Where a SMILES comes first, the peptide text is derived from it. [ ]: non-standard residue; d: D form. Ala(pyrimidin-5-yl) = N[C@@H](Cc1cncnc1)C(=O)O; NMePhe(3-Me) = CN[C@@H](Cc1cccc(C)c1)C(=O)O; Phe(2-F) = N[C@@H](Cc1ccccc1F)C(=O)O; X1 = O=C(C12CC(CN[*:1])(C1)C2)[*:2]; PhLac = O=C(O)[C@@H](O)Cc1ccccc1; NMeA = CN[C@@H](C)C(=O)O; Nle = CCCC[C@H](N)C(=O)O
observation type: EC50 (nM)

>>> result_value("CCCC[C@@H]1NC(=O)[C@H](Cc2ccc(O)cc2)NC(=O)[C@H](CC(C)C)NC(=O)[C@H](Cc2ccc(O)cc2)NC(=O)[C@H](CCCNC(=N)N)NC(=O)[C@H](Cc2ccccc2)NC(=O)CSCCNC(=O)[C@H](Cc2ccccc2)N(C)C1=O")
1470
>>> result_value("CCCC[C@@H]1NC(=O)[C@H](Cc2cncnc2)NC(=O)[C@H](C)N(C)C(=O)[C@H](Cc2ccccc2)OC(=O)C23CC(CNC(=O)[C@H](Cc4cccc(C)c4)N(C)C(=O)[C@H](CCCC)NC(=O)[C@H](Cc4ccccc4F)NC1=O)(C2)C3 [compound 172] (cyclo([NMeA][Ala(pyrimidin-5-yl)][Nle][Phe(2-F)][Nle][NMePhe(3-Me)][X1][PhLac]))")
6.03

----------
molecular target: KRAS-G12D protein (Homo sapiens, UniProt P01116, G12D); assay: SOS-mediated nucleotide exchange assay (BODIPY-GDP / Tb-streptavidin TR-FRET); type: biochemical
pEC50: −log10 of the molar value. *1 amine or outer side, *2 acyl side, *3 side chain or, on linkers, in order; H or OH if unused. Where a SMILES comes first, the peptide text is derived from it. [ ]: non-standard residue; d: D form. Ala(pyrimidin-5-yl) = N[C@@H](Cc1cncnc1)C(=O)O; NMePhe(4-F) = CN[C@@H](Cc1ccc(F)cc1)C(=O)O; X69 = O=C([C@H]1CC[C@@H](N[*:1])C1)[*:2]; X11 = CC(C)(F)CC[C@H](N[*:1])C(=O)[*:2]; Phe(2-F) = N[C@@H](Cc1ccccc1F)C(=O)O; X1 = O=C(C12CC(CN[*:1])(C1)C2)[*:2]; Ala(cPr) = N[C@@H](CC1CC1)C(=O)O; NMeF = CN[C@@H](Cc1ccccc1)C(=O)O; PhLac = O=C(O)[C@@H](O)Cc1ccccc1; 3Pal = N[C@@H](Cc1cccnc1)C(=O)O; NMeA = CN[C@@H](C)C(=O)O; Nle = CCCC[C@H](N)C(=O)O
Attribute: pEC50
observation type: pEC50

>>> result_value("CCCC[C@@H]1NC(=O)[C@H](Cc2cccnc2)NC(=O)[C@H](CCCNC(=N)N)NC(=O)[C@H](Cc2ccccc2)NC(=O)[C@H]2CC[C@H](C2)NC(=O)[C@H](Cc2ccccc2)N(C)C(=O)[C@H](CCCC)NC(=O)[C@H](Cc2ccc(OC)cc2)NC1=O [compound 202] (cyclo(FR[3Pal][Nle]Y(Me)[Nle][NMeF][X69]))")
6.02
>>> result_value("CCCC[C@@H]1NC(=O)[C@H](Cc2cncnc2)NC(=O)[C@H](C)N(C)C(=O)[C@H](Cc2ccccc2)OC(=O)C23CC(CNC(=O)[C@H](Cc4ccc(F)cc4)N(C)C(=O)[C@H](CCCC)NC(=O)[C@H](Cc4ccccc4F)NC1=O)(C2)C3 [compound 173] (cyclo([NMeA][Ala(pyrimidin-5-yl)][Nle][Phe(2-F)][Nle][NMePhe(4-F)][X1][PhLac]))")
7.90
>>> result_value("C[C@H]1C(=O)N[C@@H](Cc2cncnc2)C(=O)N[C@@H](CC2CC2)C(=O)N[C@@H](Cc2ccccc2F)C(=O)N[C@@H](CCC(C)(C)F)C(=O)N(C)[C@@H](Cc2ccccc2)C(=O)NCC23CC(C2)(C3)C(=O)O[C@@H](Cc2ccccc2)C(=O)N1C [compound 277] (cyclo([Ala(cPr)][Phe(2-F)][X11][NMeF][X1][PhLac][NMeA][Ala(pyrimidin-5-yl)]))")
8.70
